Please provide measured Tm shift relative to glycine control for the entries that follow.
- System: Glutamate receptor ionotropic, NMDA 3A (GRIN3A) ligand-binding domain
- test-description: binders of NR3A ligand-binding domain, primary screen, biophysical, differential scanning fluorimetry, uHTS (AID 1259313)
- particulars: NR3A LBD differential scanning fluorimetry, at 25 µM, hits give high values, 0% = protein alone, 100% = glycine-bound protein
Hit rate of the full screen: of about 340,000 compounds, about 8,500 (2.5%) were called active. Shown is part of a subset that was picked to be rich in actives.
Write down the numeric answer in % and omit the unit.

## Input Kindly indicate its recorded Tm shift relative to glycine control. Item: `Cc1cc(C)cc(NC(=O)CSc2ccccc2)c1`
## Output 0.84

## Input Kindly indicate its recorded Tm shift relative to glycine control. Item: `O=C(Nc1ccc(Sc2ccc(Br)cc2)cc1)c1ccco1`
## Output 11.6

## Input Kindly indicate its recorded Tm shift relative to glycine control. Item: `COc1ccccc1Cn1c(C)nnc1-c1cnn(C)c1N`
## Output 1

## Input Kindly indicate its recorded Tm shift relative to glycine control. Item: `O=C(NCCSc1ccccc1)c1ccco1`
## Output 0.71

## Input Kindly indicate its recorded Tm shift relative to glycine control. Item: `O=C(CNC(=O)c1ccco1)NNC(=O)c1ccc(Br)cc1`
## Output 0.51

## Input Kindly indicate its recorded Tm shift relative to glycine control. Item: `COC(=O)c1ccc(NC(=O)c2cc(Cl)ccc2OC)cc1`
## Output -3.8

## Input Kindly indicate its recorded Tm shift relative to glycine control. Item: `O=C(COC(=O)C1CCN(S(=O)(=O)c2ccc3c(c2)OCCO3)CC1)Nc1ccccc1OC(F)F`
## Output 10.1

## Input Kindly indicate its recorded Tm shift relative to glycine control. Item: `CC(C)C(=O)Nc1cccc(C(=O)Nc2ccc3c(c2)OCO3)c1`
## Output -22.3

## Input Kindly indicate its recorded Tm shift relative to glycine control. Item: `COc1cc(Cl)c(C)cc1NC(=O)[C@@H]1CCCN1C(=O)c1cccs1`
## Output -1.61

## Input Kindly indicate its recorded Tm shift relative to glycine control. Item: `O=C(NNC(=O)c1ccc(-n2cncn2)c([N+](=O)[O-])c1)c1ccccc1`
## Output 3.86

## Input Kindly indicate its recorded Tm shift relative to glycine control. Item: `COC(=O)c1ccc(NC(=O)Nc2ccc(C)cc2)cc1`
## Output 14.4

## Input Kindly indicate its recorded Tm shift relative to glycine control. Item: `COc1cc(NC(=O)COc2ccccc2Cl)ccc1NC(=O)C(C)C`
## Output -1.36

###

Please provide measured Tm shift relative to glycine control for the entries that follow.
- System: Glutamate receptor ionotropic, NMDA 3A (GRIN3A) ligand-binding domain
- test-description: binders of NR3A ligand-binding domain, primary screen, biophysical, differential scanning fluorimetry, uHTS (AID 1259313)
- particulars: NR3A LBD differential scanning fluorimetry, at 25 µM, hits give high values, 0% = protein alone, 100% = glycine-bound protein
Among all 340,000 compounds or so, about 8,500 (2.5%) were called active. For the sample, actives were picked, then their nearest neighbours and some compounds at random.
Write down the numeric answer in % and omit the unit.

## Input Kindly indicate its recorded Tm shift relative to glycine control. Item: `Cc1oc2c(F)c(F)c(F)c(F)c2c1S(=O)(=O)Nc1cccc(C(F)(F)F)c1`
## Output 29.7

## Input Kindly indicate its recorded Tm shift relative to glycine control. Item: `CN(Cc1ccc(F)cc1Cl)S(=O)(=O)c1cccs1`
## Output 1.26

## Input Kindly indicate its recorded Tm shift relative to glycine control. Item: `COc1ccc(C(=O)NCc2nnc(SCC(=O)Nc3cccc(OC)c3)o2)cc1`
## Output -1.39

## Input Kindly indicate its recorded Tm shift relative to glycine control. Item: `CCCc1cc(C(=O)Nc2ccc(Cl)cn2)cs1`
## Output 0.69

## Input Kindly indicate its recorded Tm shift relative to glycine control. Item: `C/C(=N\Nc1ccc(Cl)nn1)c1ccccc1O`
## Output -6.71

## Input Kindly indicate its recorded Tm shift relative to glycine control. Item: `Cc1ccccc1Nc1scc(-c2ccc(Br)cc2)[n+]1-c1ccccc1C`
## Output 0.51

## Input Kindly indicate its recorded Tm shift relative to glycine control. Item: `Cc1ccc(S(=O)(=O)N(C)c2ccc(OCC(=O)OCC(=O)N(CC#N)c3ccccc3)cc2)cc1`
## Output 2.35

## Input Kindly indicate its recorded Tm shift relative to glycine control. Item: `COc1ccc(Br)cc1/C=N/Nc1ccc(Cl)c(C(=O)O)c1`
## Output -7.4

## Input Kindly indicate its recorded Tm shift relative to glycine control. Item: `CCc1cccc(CC)c1NC(=S)NCc1ccc2[nH]c(C)cc2c1`
## Output -6.16

## Input Kindly indicate its recorded Tm shift relative to glycine control. Item: `COc1cccc(/C=N/Nc2ncc(C(F)(F)F)cc2Cl)c1O`
## Output 24.2

## Input Kindly indicate its recorded Tm shift relative to glycine control. Item: `Cc1cccc(NC(=S)N2CCC(C(=O)c3ccc(F)cc3)CC2)c1`
## Output -1.17

## Input Kindly indicate its recorded Tm shift relative to glycine control. Item: `CCc1ccc(-c2cc(C)no2)cc1S(=O)(=O)NCCc1ccc(S(N)(=O)=O)cc1`
## Output -4.05

## Input Kindly indicate its recorded Tm shift relative to glycine control. Item: `CN(C)c1ccc(NC(=O)CSc2n[nH]c(-c3ccco3)n2)cc1`
## Output 0.92

## Input Kindly indicate its recorded Tm shift relative to glycine control. Item: Cc1cc(C)cc(NC(=O)c2cccc(NC(=O)C3C4CC5OC(=O)C3C5C4)c2)c1 (stereo unspecified)
## Output 3.21

## Input Kindly indicate its recorded Tm shift relative to glycine control. Item: `Cc1nn(C)c(C)c1S(=O)(=O)N1CCc2ccccc21`
## Output -0.32

## Input Kindly indicate its recorded Tm shift relative to glycine control. Item: `Cc1c(NC(=O)c2c([N+](=O)[O-])cnn2C)c(=O)n(-c2ccccc2)n1C`
## Output -0.61

Reference source: PubChem BioAssay AID1259313
